Test system: OVCAR-3 ovarian
Test: NCI tumour cell line growth inhibition, 48 h

molecule	study-system	TGI
Cc1ccc(Oc2ccc(C)cc2[N+](=O)[O-])cc1	OVCAR-3 ovarian	> 100 µM
Cn1c2c(cc(S(=O)(=O)c3ccccc3)c1=O)CCc1c-2cnn1-c1ccc(Cl)cc1	OVCAR-3 ovarian	5.67 µM
CC1C(c2ccccc2)OP(=O)(OC(C#N)c2ccccc2)N1C (stereo unspecified)	OVCAR-3 ovarian	> 100 µM
CCCCCCCCCCCCCCCCCC(=O)OCC(COC1OC(COP(=O)(O)O)C(O)C(O)C1O)OC(=O)CCCCCCCCCCCCCCCCC (stereo unspecified)	OVCAR-3 ovarian	16 µM
C#CCOCC12C=CC(O1)C1C(=O)N(C)C(=O)C12 (stereo unspecified)	OVCAR-3 ovarian	> 100 µM
c1ccc(SC(CCCCC(Sc2ccccc2)Sc2ccccc2)Sc2ccccc2)cc1	OVCAR-3 ovarian	> 100 µM
C=C1CC2OC2(C(=O)O[C@H]2CCC3[C@@H]4CCC5=CC(=O)CC[C@]5(C)C4CC[C@@]32C)C1=O (stereo partly specified)	OVCAR-3 ovarian	21.8 µM
CC(=O)Nc1ccccc1SCCSSCCSc1ccccc1NC(C)=O	OVCAR-3 ovarian	> 100 µM
O=S(=O)(Sc1ccc(Cl)cc1)c1ccc(Cl)cc1	OVCAR-3 ovarian	30.2 µM
COc1ccc(N=c2ssc3c(=S)ssc23)cc1	OVCAR-3 ovarian	61.7 µM
COc1ccc(NC(=O)C/C(C)=N\N=C(N)N)c([N+](=O)[O-])c1	OVCAR-3 ovarian	> 100 µM
C[Si](C)(C)OC1(C#N)C2C3CC4C2C(=O)C2C4C3C21 (stereo unspecified)	OVCAR-3 ovarian	> 100 µM
Cn1cnc2nc(Cl)nc(NC(C)(C)C(C)(C)O)c21	OVCAR-3 ovarian	> 100 µM
O=C1C2CC=CCC2C(=O)N1n1c(-c2ccccc2)n[nH]c1=O (stereo unspecified)	OVCAR-3 ovarian	> 100 µM
CN(C)c1nc(=Nc2ccc3ccccc3c2)ss1	OVCAR-3 ovarian	> 100 µM
CN(C)CCCNc1ccc2ncn3c4ccccc4c(=O)c1c23	OVCAR-3 ovarian	56.2 µM
O=C(c1ccccc1)c1ccc(COc2ccc(C(c3c(O)c4ccccc4oc3=O)c3c(O)c4ccccc4oc3=O)cc2)cc1	OVCAR-3 ovarian	34.5 µM
COc1ccc(N2C(=O)C3c4[nH]c5ccc(C)cc5c4C4CCC(C)CC4C3C2=O)cc1 (stereo unspecified)	OVCAR-3 ovarian	> 100 µM
COc1cc2c(c(OC)c1OC)C(=O)[C@H](O)[C@H]2NC(N)=O	OVCAR-3 ovarian	> 100 µM
CC(=O)C1=CSC2[C@H](NC(=O)Cc3ccccc3)C(=O)N2C1C(=O)OC(c1ccccc1)c1ccccc1 (stereo partly specified)	OVCAR-3 ovarian	> 100 µM
O=c1ccc2cc(O)c(O)cc2o1	OVCAR-3 ovarian	> 100 µM
